The reported numbers originate from PubChem BioAssay (NCI).

For each entry below, report its growth value.
Tested on: SF-295 CNS
experiment_notes: NCI-60 one-dose screen, 48 h (100 = growth as untreated, 0 = no growth, -100 = all killed)
measurement_parameters: 10 µM unless noted
This is part of a sample that, as a whole, favours compounds with a hit. Of some 83,000 tested, about 20% had one in any assay.
Numbers only, in %.

Worked set:
# input Any idea what its growth is? The molecule is N#C/C(=C\c1ccc(-c2ccc(Cl)cc2)o1)c1nc(-c2ccco2)cs1
# output 92.9

# input Any idea what its growth is? The molecule is O=P(O)(c1ccccc1)c1ccccc1I
# output 93.7

---
# input Any idea what its growth is? The molecule is NC(N)=N/N=C/c1ccc(-c2ccc(-c3ccc(Cl)cn3)s2)cc1
# output 102
